target: T1, Hu/NoV/GII.4/RockvilleD1/2012/U.S. VLP (human norovirus GII.4); assay: VLP ELISA
T1 construct: mature; baculovirus VLP; VP2 may be present
property measured: minimum concentration of VHH able to recognize 100 ng of VLP (ng/well)
Give the value, in units of ng/well, as a plain number.

// lookup minimum concentration of VHH able to recognize 100 ng of VLP for VHH 19 (VHH, MD2004 library, subtractive biopanning; His6 tag; also called 19.1; clone 19) VHH: QVKLQQSGGGLVQPGGSLRLSCAASGFTFRNYAMSWVRQAPGKGLEWVSAIAAGGAVTKYADSVKGRFTISRDNARDTLYLQMNSLKPEDTAVYYCAKPRDFWYSPEFDFRGQGTQVTVSS
2

For the binder VHH 2.1 (VHH, llama VHH, MD2004 library; pHEN6, C-terminal His6 tag; also called clone 2.1) VHH: QVQLQESGGGLVQAGGSLRLSCAASGLTFSSYAMGWFHQAPGKEREFVAAINWSGRDTYYADSVKGRFTISRDNRKNTVYLQMNSLKPEDTAVYYCAAAEFFSSGDPLPGMDYWGKGTLVTVSS , what minimum concentration of VHH able to recognize 100 ng of VLP is on record?
0.25

minimum concentration of VHH able to recognize 100 ng of VLP lookup needed for VHH 3.2 (VHH, llama VHH, MD2004 library; pHEN6, C-terminal His6 tag; also called clone 3.2) VHH: QVQLQESGGGLVQPGGSLRLSCAASESTPSINTMGWYRQAPGKERELVATITSGGMTNYADSVKGRFTISRDNGKNTVYLQMNSLEPGDTAVYYCNLKRRDLQARFGGYWGQGTQVTVSS , thanks.
0.5

Looking for the measured minimum concentration of VHH able to recognize 100 ng of VLP of VHH 4.1 (VHH, llama VHH, MD2004 library; pHEN6, C-terminal His6 tag; also called clone 4.1) VHH: QVKLQQSGGGLVQPGGSLRLSCAASESTISINTLGWYRQAPGNQRELVATITTGGTTNYADSVKGRFTISRDNAKNTVYLQMNNLEPGDTAVYYCNLKRRDLQSRFGGYWGQGTQVTVSS , can you help?
1

minimum concentration of VHH able to recognize 100 ng of VLP for VHH 7.5 (VHH, llama VHH, MD2004 library; pHEN6, C-terminal His6 tag; also called clone 7.5) VHH: QVKLQESGGGLVQAGESLRLSCAASGSNFSINGVGWYRQAPGKQRELVAGITNGGYTSYADSVKGRFTISTDNAKNTVYLQMNSLRPEDTAVYYCNANFQIHRSGADYVRNYWGQGTQVTVSA ?
0.5

# minimum concentration of VHH able to recognize 100 ng of VLP lookup, item VHH 1 (VHH, llama VHH, MD2004 (GII.4) library; pHEN6, C-terminal His6 tag; also called 1.1; clone 1) VHH: QVQLQQSGGGLVQAGGSLRLSCAASGLAFSSYAITWLRQAPGTEREFVALISGSGSSTYYADSVKGRFTISRNNAKNTVYLQMNSLKPEDTAVYYCTASEFLLHPPPPNQKYDYWGQGTQVTVSS
0.25

Using the record for VHH 5.4 (VHH, llama VHH, MD2004 library; pHEN6, C-terminal His6 tag; also called clone 5.4) VHH: QVQLQQSGGGLVQPGGSLRLSCVASESTVSINIMGWYRQAPGKQRELVATITTGGTTNYADSVKGRFTISRDNAKNTVYLQMNSLEPEDTAVYYCNLKRRDLQARFGGYWGQGTQVTVSS , report its minimum concentration of VHH able to recognize 100 ng of VLP.
0.5
